Where do these numbers come from? They come from patent US20220073604A1.

target: T1, bacterially produced human IL-6 (human, UniProt P05231 30-212); test: SPR; periplasmic fraction
T1 construct: also called bactIL-6; prokaryotic IL-6
Attribute Measured: pKd
pKd is a log-scale quantity: -log10 of the concentration expressed in molar.

Fab 55E2 (Fab, V domains shown, VL-shuffled Fab of 29B11, periplasmic fraction; also called 55E2b) VH: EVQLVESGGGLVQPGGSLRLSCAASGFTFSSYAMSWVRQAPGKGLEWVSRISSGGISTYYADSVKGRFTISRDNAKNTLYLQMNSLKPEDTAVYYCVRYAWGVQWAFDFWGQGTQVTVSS VL: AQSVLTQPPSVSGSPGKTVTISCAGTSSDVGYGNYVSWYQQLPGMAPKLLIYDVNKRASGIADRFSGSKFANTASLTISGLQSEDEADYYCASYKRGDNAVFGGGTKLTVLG: 9.86

The measured pKd associated with Fab 48C10 (Fab, V domains shown, VL-shuffled Fab of 29B11, periplasmic fraction) VH: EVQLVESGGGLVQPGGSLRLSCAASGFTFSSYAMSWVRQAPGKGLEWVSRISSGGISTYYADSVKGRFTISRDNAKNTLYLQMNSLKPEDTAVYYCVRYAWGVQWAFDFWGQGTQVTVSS VL: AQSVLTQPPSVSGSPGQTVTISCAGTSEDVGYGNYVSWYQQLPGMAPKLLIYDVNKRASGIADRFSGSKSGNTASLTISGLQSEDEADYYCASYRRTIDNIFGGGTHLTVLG reads 9.15

Form field pKd, entry Fab 47C2 (Fab, V domains shown, VL-shuffled Fab of 29B11, periplasmic fraction; also called 47C2 (R4)) VH: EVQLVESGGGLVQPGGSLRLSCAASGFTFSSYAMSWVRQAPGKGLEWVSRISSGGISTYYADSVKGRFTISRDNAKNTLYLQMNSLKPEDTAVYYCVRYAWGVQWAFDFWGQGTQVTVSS VL: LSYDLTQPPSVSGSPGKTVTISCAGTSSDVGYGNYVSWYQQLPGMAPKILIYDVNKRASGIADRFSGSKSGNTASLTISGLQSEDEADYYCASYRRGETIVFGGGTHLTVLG : 9.55

Value of pKd reported for the binder Fab 55C1 (Fab, V domains shown, VL-shuffled Fab of 29B11, periplasmic fraction; also called 55C1a) VH: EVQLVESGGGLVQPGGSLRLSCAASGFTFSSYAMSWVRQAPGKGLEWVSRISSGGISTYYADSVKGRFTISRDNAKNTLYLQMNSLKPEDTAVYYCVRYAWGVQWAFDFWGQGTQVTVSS VL: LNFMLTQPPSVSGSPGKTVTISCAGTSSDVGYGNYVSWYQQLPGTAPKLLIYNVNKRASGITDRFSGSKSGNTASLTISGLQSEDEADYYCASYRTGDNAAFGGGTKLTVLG is 9.88

// recorded pKd for Fab 55H1 (Fab, V domains shown, VL-shuffled Fab of 29B11, periplasmic fraction; also called 55H1c) VH: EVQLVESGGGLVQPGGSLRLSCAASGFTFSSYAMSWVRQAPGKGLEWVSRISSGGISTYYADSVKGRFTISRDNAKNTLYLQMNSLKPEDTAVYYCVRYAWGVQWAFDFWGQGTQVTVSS VL: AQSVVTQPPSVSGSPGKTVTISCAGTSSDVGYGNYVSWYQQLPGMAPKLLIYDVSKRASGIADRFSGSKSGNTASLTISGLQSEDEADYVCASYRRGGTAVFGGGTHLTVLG : 10.00

Sample Fab 29B11 (Fab, V domains shown, Fab) VH: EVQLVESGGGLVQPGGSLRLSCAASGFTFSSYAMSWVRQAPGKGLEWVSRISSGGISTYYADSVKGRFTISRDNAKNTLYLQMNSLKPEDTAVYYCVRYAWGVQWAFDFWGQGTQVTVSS VL: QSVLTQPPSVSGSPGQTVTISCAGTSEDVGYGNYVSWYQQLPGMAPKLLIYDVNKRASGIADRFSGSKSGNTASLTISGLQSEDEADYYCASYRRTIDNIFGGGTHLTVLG ; pKd observed: 9.28
